Measured Intensity (against -ve control), listed per entry.
target.or.test.system: T1, Human receptor grade IGF-II (insulin-like growth factor II) (human, UniProt P01344 25-91)
T1 construct: Bought recombinant protein, overlaid in solution on the VN-peptide array
T1 sequence (P01344 25-91 limits assumed): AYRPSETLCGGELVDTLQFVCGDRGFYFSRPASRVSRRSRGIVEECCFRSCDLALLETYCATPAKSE
assay.remarks: VN-peptide array, ligand overlay, immunoblot/ECL, TotalLab spot intensity
Where no end group is shown, it is not given here.

GRTSAGTRQPQFISRD (not fully specified (N-terminus); also: free end capped by acetylation, immobilised on cellulose membrane (SPOT synthesis)) [VN-peptide 6A (array grid G12)] ... 12 fold over negative controls
RVNLRTRRVDTVDPPY (not fully specified (N-terminus); also: free end capped by acetylation, immobilised on cellulose membrane (SPOT synthesis)) [VN-peptide 8B (array grid J5)] ... 17 fold over negative controls
SAGTRQPQFISRDWHG (not fully specified (N-terminus); also: free end capped by acetylation, immobilised on cellulose membrane (SPOT synthesis)) [VN-peptide 6B (array grid G13)] ... 0 fold over negative controls

## Input Data request, read-out Intensity (against -ve control), for TRQPQFISRDWHGVPG (not fully specified (N-terminus); also: free end capped by acetylation, immobilised on cellulose membrane (SPOT synthesis)) [VN-peptide 6C (array grid G14)]
## Output 1.5 fold over negative controls

## Input Data request, read-out Intensity (against -ve control), for KYYRVNLRTRRVDTVD (not fully specified (N-terminus); also: free end capped by acetylation, immobilised on cellulose membrane (SPOT synthesis)) [VN-peptide 8A (array grid J4)]
## Output 5 fold over negative controls

## Input Data request, read-out Intensity (against -ve control), for SNLGANNYDDYRMDWL (not fully specified (N-terminus); also: free end capped by acetylation, immobilised on cellulose membrane (SPOT synthesis)) [VN-peptide 7C (array grid I9)]
## Output 12 fold over negative controls

## Input Data request, read-out Intensity (against -ve control), for DELCSYYQSCCTDYTA (not fully specified (N-terminus); cysteine pairing not given here; also: free end capped by acetylation, immobilised on cellulose membrane (SPOT synthesis)) [VN-peptide 1B (array grid A14)]
## Output 12 fold over negative controls
